tested on: Huh-7.5 Rluc-replicon viability, CellTiter-Glo ATP, 72 h; assay: Huh-7.5 replicon viability loss – cell-based, luminescence, cytotoxicity control for HCV NS3 helicase inhibitor project, late-stage follow-up (AID 623961); settings: at 10 µM; stronger effect = lower value
Kindly state viability for each of the entries shown.
# number only, unit % dropped from output

# compound O=C(Nc1nc2ccc(Br)cc2s1)c1ccc2ncsc2c1 ; its viability = 89

# compound Cc1ccc2nc(-c3ccc(NC(=O)c4ccc(C(F)(F)F)cc4)cc3)sc2c1S(=O)(=O)O ; its viability = 102

# compound Cc1ccc2nc(-c3ccc(NC(=O)c4ccc(NC(=O)c5ccc(C(F)(F)F)cc5)cc4)cc3)sc2c1S(=O)(=O)O ; its viability = 97

# compound Cc1ccc2nc(-c3ccc4nc(-c5ccc6nc(-c7ccc(N)cc7)sc6c5)sc4c3)sc2c1S(=O)(=O)O ; its viability = 91

# compound CCOc1ccc2c(NNC(=O)c3cnccn3)c3c(nc2c1)CCCC3 ; its viability = 31

# compound Cc1ccc(C(=O)Nc2ccc(-c3nc4ccc(-c5nc6ccc(C)c(S(=O)(=O)O)c6s5)cc4s3)cc2)cc1 ; its viability = 87

# compound Cc1ccc2nc(-c3ccc4nc(-c5ccc(NC(=O)c6ccc(CNC(=O)OCC7c8ccccc8-c8ccccc87)cc6)cc5)sc4c3)sc2c1S(=O)(=O)O ; its viability = 102

# compound Cc1ccc2nc(-c3ccc4nc(-c5ccc(N(C)C(=O)c6ccc7ccccc7c6)cc5)sc4c3)sc2c1S(=O)(=O)O ; its viability = 101

# compound Cc1ccc2nc(-c3ccc4nc(-c5ccc(NC(=O)c6ccc7ncoc7c6)cc5)sc4c3)sc2c1S(=O)(=O)O ; its viability = 114

# compound Cc1ccc2nc(-c3ccc4nc(-c5ccc(NC(=O)Nc6ccc(F)cc6)cc5)sc4c3)sc2c1S(=O)(=O)O ; its viability = 93

# compound Cc1ccc2nc(-c3ccc4nc(-c5ccc(NS(=O)(=O)c6ccc(C(F)(F)F)cc6)cc5)sc4c3)sc2c1S(=O)(=O)O ; its viability = 101

# compound O=C(CCCCCCC(=O)Nc1ccc(-c2nc3ccccc3[nH]2)cc1)Nc1ccc(-c2nc3ccccc3[nH]2)cc1 ; its viability = 31

# compound COc1cccc2c(=O)c3cc(Cl)cc(C(=O)Nc4cc(Cl)ccn4)c3[nH]c12 ; its viability = 79

# compound Cc1ccc2nc(-c3ccc(NC(=O)c4ccc(NC(=S)Nc5ccccc5)cc4)cc3)sc2c1S(=O)(=O)O ; its viability = 106

# compound Cc1ccc2nc(-c3ccc4nc(-c5ccc(NC(=O)c6cc(F)ccc6C(F)(F)F)cc5)sc4c3)sc2c1S(=O)(=O)O ; its viability = 118

# compound Cc1ccc2nc(-c3ccc4nc(-c5ccc(NC(=O)c6ccc(C(F)(F)F)cc6)cc5)sc4c3)sc2c1S(=O)(=O)O ; its viability = 90

# compound Cc1ccc2nc(-c3ccc4nc(-c5ccc(NC(=O)c6ccccc6C(F)(F)F)cc5)sc4c3)sc2c1S(=O)(=O)O ; its viability = 112

# compound Cc1ccc2nc(-c3ccc4nc(-c5ccc(NC(=O)c6cccnc6)cc5)sc4c3)sc2c1S(=O)(=O)O ; its viability = 113

# compound Cc1ccc2nc(-c3ccc(NC(=O)c4ccc(N)cc4)cc3)sc2c1S(=O)(=O)O ; its viability = 103

# compound COc1ccc(S(=O)(=O)Nc2ccc(-c3nc4ccc(-c5nc6ccc(C)c(S(=O)(=O)O)c6s5)cc4s3)cc2)cc1 ; its viability = 75

# compound O=C(Nc1ccc(-c2nc3ccccc3[nH]2)cc1)c1ccc2ncsc2c1 ; its viability = 96

# compound Cc1ccc2nc(-c3ccc4nc(-c5ccc(NC(=O)c6cc(C(F)(F)F)ccc6F)cc5)sc4c3)sc2c1S(=O)(=O)O ; its viability = 132

# compound NS(=O)(=O)c1ccc2nc(NC(=O)c3ccc4ncsc4c3)sc2c1 ; its viability = 94

# compound Cc1ccc2nc(-c3ccc4nc(-c5ccc(NC(=O)c6ccc(C(F)(F)F)c(F)c6)cc5)sc4c3)sc2c1S(=O)(=O)O ; its viability = 129

# compound Cc1ccc2c(sc(-c3ccc4c(c3)sc(-c3ccc5c(c3)sc(-c3ccc(N(C)C)cc3)[n+]5C)[n+]4C)[n+]2C)c1S(=O)(=O)O (tested in a mixture with another compound) ; its viability = 83

# compound Cc1ccc2nc(-c3ccc4nc(-c5ccc6nc(-c7ccc(N)cc7)sc6c5)sc4c3)sc2c1S(=O)(=O)O (tested in a mixture with another compound) ; its viability = 98

# compound COc1ccc(NC(=O)Nc2ccc(-c3nc4ccc(-c5nc6ccc(C)c(S(=O)(=O)O)c6s5)cc4s3)cc2)cc1 ; its viability = 99

# compound Cc1ccc2nc(-c3ccc4nc(-c5ccc(NC(=O)c6ccc(NC(=O)OCC7c8ccccc8-c8ccccc87)cc6)cc5)sc4c3)sc2c1S(=O)(=O)O ; its viability = 92

# compound Cc1ccc2nc(-c3ccc4nc(-c5ccc(NC(=O)c6cccc7ccccc67)cc5)sc4c3)sc2c1S(=O)(=O)O ; its viability = 103

# compound CCN(CC)c1ccc(-c2nc3ccc(-c4nc5ccc(C)c(S(=O)(=O)O)c5s4)cc3s2)cc1 ; its viability = 96

# compound Cc1ccc2nc(-c3ccc4nc(-c5ccc(NC(=O)c6ccccc6)cc5)sc4c3)sc2c1S(=O)(=O)O ; its viability = 88
